Provenance of the data: paper PMC9950733

Entries and their dH
Molecular target: T1, recombinant Bacteroides fragilis toxin 1 (BFT1), full length without signal peptide (Bacteroides fragilis (enterotoxigenic), …)
T1 construct: B. fragilis toxin subtype 1 (BFT1, fragilysin), zinc-dependent metallopeptidase of enterotoxigenic Bacteroides fragilis; prodomain plus catalytic domain, without the signal peptide; also called B. fragilis toxin; source: E. coli Origami-2 (DE3), purified (Ni-NTA, SEC on Superdex 75)
T1 chain: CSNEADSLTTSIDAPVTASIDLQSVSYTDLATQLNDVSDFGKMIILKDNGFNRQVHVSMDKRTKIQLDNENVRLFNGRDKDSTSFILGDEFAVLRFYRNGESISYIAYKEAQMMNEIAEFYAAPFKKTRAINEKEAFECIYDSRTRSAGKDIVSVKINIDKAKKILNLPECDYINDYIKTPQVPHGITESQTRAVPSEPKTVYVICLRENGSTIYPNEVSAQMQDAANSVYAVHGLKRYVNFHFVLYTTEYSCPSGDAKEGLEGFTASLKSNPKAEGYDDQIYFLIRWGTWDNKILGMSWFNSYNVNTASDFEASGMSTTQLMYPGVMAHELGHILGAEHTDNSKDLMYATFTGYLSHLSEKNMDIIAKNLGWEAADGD
Assay: ITC; Microcal ITC 200, 25°C; 20 mM Tris pH 8.0, 150 mM NaCl, 5% glycerol; nanobody (20 μM) injected into BFT solution (200 μM); one binding site mode
Settings: both partners purified
reported endpoint: dH (kcal/mol)

binder	reported endpoint	recorded number
Nb3.63 (VHH, from round 3 of bio-panning; source: E. coli WK6 periplasm, purified (Ni-NTA, SEC on Superdex 75)) VHH: QVQLQESGGGLVQVGGSLRLSCAASGRTFGTFPMGWFRQAPGKEREFVAAISWSGTGTYYANSVKGRFTISRDNARNTVYLQMNNLKPEDTAVYSCAGRNTGRYSTTVYVEESDYGYWGQGTQVTVSS	dH	-18.8
Nb2.55 (VHH, from round 2 of bio-panning; source: E. coli WK6 periplasm, purified (Ni-NTA, SEC on Superdex 75)) VHH: QVQLQESGGGLVQAGGSLRLSCVRSGHTFDAFAMGWFRQAPGKERESVATINWSGDRTYYADSAKGRFTISRDNAKNTVYLQMNSLKPEDTAVYYCAQMDGTYYSGTPSYWGQGTQVTVSS	dH	-10
